All figures here come from PubChem BioAssay (Tox21).

assay: cAMP Responsive Elements (CRE) small molecule agonists, cell-based qHTS assay (AID 1963590); conditions: CRE-bla HEK293T, beta-lactamase FRET ratio, 3 h; series mostly up to 92.4 µM
Results filed as inconclusive are left out. The source made the active and inactive calls. The call rests on the fitted dose curve.
attribute.measured: activation

Here are 5 molecules together with their reported answers.
[
  {
    "molecule": "COc1cc(CC(C)N)c(OC)cc1Br (stereo not drawn)",
    "attribute.measured": "activation",
    "result": "inactive"
  },
  {
    "molecule": "CC(C)(COCC1CO1)COCC1CO1 (stereo not drawn)",
    "attribute.measured": "activation",
    "result": "inactive"
  },
  {
    "molecule": "CCCCCCCCCCCCCN1CC(C)OC(C)C1 (stereo not drawn)",
    "attribute.measured": "activation",
    "result": "inactive"
  },
  {
    "molecule": "CN1COCN(Cc2cnc(Cl)s2)/C1=N\\[N+](=O)[O-]",
    "attribute.measured": "activation",
    "result": "inactive"
  },
  {
    "molecule": "COc1ccc(C=O)cc1O",
    "attribute.measured": "activation",
    "result": "inactive"
  }
]

# input Look at this molecule and give its reported activation. `NC(=S)C(N)=S`
# output inactive
